- System: Trypanosoma brucei rhodesiense
- Assay comment: Antitrypanosomal activity was evaluated against Trypanosoma rhodesiense infections in mice, at dose 53 mg/kg, administered subcutaneously
- Type: functional
- Run parameters: route subcutaneous
Measured attribute: Delta MST (days)
Answers are plain numbers, in days.

Answered examples (5):
COc1cc(-c2ccc(N3C(N)=NC(N)=NC3(C)C)c(OC)c2)ccc1N1C(N)=NC(N)=NC1(C)C.Cl.Cl ... 4.9
Cl.Cl.NC1=NC2(CCCCC2)N(c2ccc(CCc3ccc(N4C(N)=NC(N)=NC45CCCCC5)cc3)cc2)C(N)=N1 ... 9
CC1(C)N=C(N)N=C(N)N1c1ccc(Cc2ccc(N3C(N)=NC(N)=NC3(C)C)cc2)cc1.Cl.Cl ... 6.5
CC1(C)N=C(N)N=C(N)N1c1ccc(CCc2ccc(N3C(N)=NC(N)=NC3(C)C)cc2)cc1.Cl.Cl ... 7.8
CC1(C)N=C(N)N=C(N)N1c1cc(Cl)c(N2C(N)=NC(N)=NC2(C)C)c(Cl)c1.Cl.Cl ... -0.2

I have 2 molecules here; please give me Delta MST for each one.
1. Cl.Cl.N=C(N)NC(=N)Nc1ccc(CCc2ccc(NC(=N)N=C(N)N)cc2)cc1
2. CC1(C)N=C(N)N=C(N)N1c1ccc(OCCCCCCCCCCCCOc2ccc(N3C(N)=NC(N)=NC3(C)C)cc2)cc1.Cl.Cl

stdout:
1. 1.4
2. 0.4

stdin: Consider the molecule shown here: CC1(C)N=C(N)N=C(N)N1c1ccc(OCOc2ccc(N3C(N)=NC(N)=NC3(C)C)cc2)cc1.Cl.Cl What is its recorded Delta MST?
stdout: 9
